The entries below are paired with their reported ICAM-1 (% ASFI of HA).
Target: T1, ICAM-1-Fcγ (ICAM-1 residues of 1-480 fused to the Fc of human IgG, R&D Systems) (human, UniProt P05362 28-480)
T1 construct: range 1-480; Bought (R&D Systems); also called ICAM-1-Fcγ chimera; not shown: Fc of human IgG
T1 sequence (P05362 28-480 limits assumed, form in doubt): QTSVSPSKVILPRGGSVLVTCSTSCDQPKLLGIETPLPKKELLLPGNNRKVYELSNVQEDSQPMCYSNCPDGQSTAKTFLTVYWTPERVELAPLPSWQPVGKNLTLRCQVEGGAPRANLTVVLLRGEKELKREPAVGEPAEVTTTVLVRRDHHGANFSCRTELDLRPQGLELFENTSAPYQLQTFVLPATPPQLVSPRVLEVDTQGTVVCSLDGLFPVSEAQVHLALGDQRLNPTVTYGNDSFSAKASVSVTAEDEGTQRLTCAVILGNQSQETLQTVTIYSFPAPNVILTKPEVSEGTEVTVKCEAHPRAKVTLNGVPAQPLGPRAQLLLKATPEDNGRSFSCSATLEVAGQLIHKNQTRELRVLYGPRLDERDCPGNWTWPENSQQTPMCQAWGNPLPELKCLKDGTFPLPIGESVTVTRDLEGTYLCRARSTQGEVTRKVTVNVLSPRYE
Test: flow cytometry on yeast-displayed I domain, ICAM-1-Fcγ 10 µg/ml
Method: Cells that were cultured only in SD-CAA or further induced in SG-CAA were harvested, washed with 100 μl of labeling buffer (PBS, 0.5% BSA, 10 mM MgCl₂), and then incubated with ligands at 10 μg/ml in 50 μl of the labeling buffer for 20 min with shaking at 30° C. in a 96-well V-bottom plate. […]

Below: 2 binders and their reported ICAM-1 (% ASFI of HA).
αL I domain clone m6 (F209Y, L289P), yeast-displayed (receptor, yeast surface display; not shown: Aga2, linker and hemagglutinin tag of pCTCON; c-myc tag) NVDLVFLFDGSMSLQPDEFQKILDFMKDVMKKLSNTSYQFAAVQFSTSYKTEFDFSDYVKWKDPDALLKHVKHMLLLTNTYGAINYVATEVFREELGARPDATKVLIIITDGEATDSGNIDAAKDIIRYIIGIGKHFQTKESQETLHKFASKPASEFVKIPDTFEKLKDLFTELQKKIYVIEGTSKQDLT	33 % ASFI of HA
αL I domain clone f6 (F292G), yeast-displayed (receptor, yeast surface display; not shown: Aga2, linker and hemagglutinin tag of pCTCON; c-myc tag) NVDLVFLFDGSMSLQPDEFQKILDFMKDVMKKLSNTSYQFAAVQFSTSYKTEFDFSDYVKWKDPDALLKHVKHMLLLTNTFGAINYVATEVFREELGARPDATKVLIIITDGEATDSGNIDAAKDIIRYIIGIGKHFQTKESQETLHKFASKPASEFVKILDTGEKLKDLFTELQKKIYVIEGTSKQDLT	91 % ASFI of HA

Data request: Looking for the measured ICAM-1 (% ASFI of HA) of αL I domain clone m15 (F277L, I288T), yeast-displayed (receptor, yeast surface display; not shown: Aga2, linker and hemagglutinin tag of pCTCON; c-myc tag) NVDLVFLFDGSMSLQPDEFQKILDFMKDVMKKLSNTSYQFAAVQFSTSYKTEFDFSDYVKWKDPDALLKHVKHMLLLTNTFGAINYVATEVFREELGARPDATKVLIIITDGEATDSGNIDAAKDIIRYIIGIGKHFQTKESQETLHKLASKPASEFVKTLDTFEKLKDLFTELQKKIYVIEGTSKQDLT , can you help?
Data returned: 30 % ASFI of HA

Data request: Looking for the measured ICAM-1 (% ASFI of HA) of αL I domain clone m3 (G262E), yeast-displayed (receptor, yeast surface display; not shown: Aga2, linker and hemagglutinin tag of pCTCON; c-myc tag) NVDLVFLFDGSMSLQPDEFQKILDFMKDVMKKLSNTSYQFAAVQFSTSYKTEFDFSDYVKWKDPDALLKHVKHMLLLTNTFGAINYVATEVFREELGARPDATKVLIIITDGEATDSGNIDAAKDIIRYIIGIEKHFQTKESQETLHKFASKPASEFVKILDTFEKLKDLFTELQKKIYVIEGTSKQDLT , can you help?
Data returned: 4 % ASFI of HA

Data request: Looking for the measured ICAM-1 (% ASFI of HA) of αL I domain clone f5 (F292A), yeast-displayed (receptor, yeast surface display; not shown: Aga2, linker and hemagglutinin tag of pCTCON; c-myc tag) NVDLVFLFDGSMSLQPDEFQKILDFMKDVMKKLSNTSYQFAAVQFSTSYKTEFDFSDYVKWKDPDALLKHVKHMLLLTNTFGAINYVATEVFREELGARPDATKVLIIITDGEATDSGNIDAAKDIIRYIIGIGKHFQTKESQETLHKFASKPASEFVKILDTAEKLKDLFTELQKKIYVIEGTSKQDLT , can you help?
Data returned: 29 % ASFI of HA

Data request: Looking for the measured ICAM-1 (% ASFI of HA) of αL I domain clone f8 (L295A), yeast-displayed (receptor, yeast surface display; not shown: Aga2, linker and hemagglutinin tag of pCTCON; c-myc tag) NVDLVFLFDGSMSLQPDEFQKILDFMKDVMKKLSNTSYQFAAVQFSTSYKTEFDFSDYVKWKDPDALLKHVKHMLLLTNTFGAINYVATEVFREELGARPDATKVLIIITDGEATDSGNIDAAKDIIRYIIGIGKHFQTKESQETLHKFASKPASEFVKILDTFEKAKDLFTELQKKIYVIEGTSKQDLT , can you help?
Data returned: 25 % ASFI of HA
